# System: MS2 coat protein
# assay name: apparent KD of MS2 coat protein; designed switch direction (-1 OFF switch, 1 ON switch): -1; higher = weaker reporter binding
# condition summary: input ligand: FMN 200 uM
quantity kind: apparent KD of MS2 coat protein (nM)
Record the value in nM, omitting the unit from your answer.

// known answers, use as guide
GCCCGGGCAGGAUAUACAAGCUAGUGCUGAAAAGUGCUAGUACAUGAGGAUCACCCAUGUAGAAGGGCCCGGGC [-37.6, -35.7 kcal, A 28% 2bis] (Eterna round: R97, puzzle: Exclusion 2) ... 30.5
UGCGGUAGAGGAUAUACGUAGAAUUAGGUUCAUGUAAAACUACAUGAGGAUCACCCAUGUAGAAGGCUAUCGCU [JL-ex2-4.30 Eli mod] (Eterna round: R97, puzzle: Exclusion 2) ... 85.4
UUAUUACAAGCAAGAUCUCACAUGAGGAUCACCCAUGUGCUCGUCUUAAAAGGUACUGUGACGAAAGUCACGGUACC [Eli 100 v3] (Eterna round: R97, puzzle: Sensor, turn-off variant 1) ... 16.4
GAAAAGAAGCUAGGAUAUGCAUGACGGAUACCCGUGAGCACGUAGCAGACAUGAGGAUCACCCAUGUAGAAGGAGCGAAGAAAU [Veteriat] (Eterna round: R96, puzzle: Exclusion NG 2) ... 251
AAGAAGAAGUAAGGAUAUGAAGAUUUGGUGGUGACAUGAGGAUCACCCAUGUGAAAACAAUAAGAUCAGAAGGUAUAAGAAGAA [AK ExNG2-3] (Eterna round: R96, puzzle: Exclusion NG 2) ... 522
GCAAGCUUUUGCUCGUCUUACAUGAGGAUCACCCAUGUCGGGUUCGGUCGUCGCGGCUGGGCUUGCCGGGCGCCGGG [-28.7, -55.8 kcal, A 10%] (Eterna round: R97, puzzle: Sensor, turn-off variant 1) ... 215

Ask: Request the reported apparent KD of MS2 coat protein associated with UAUAUGUGAGGAUAUCCUUUAUUAAUUAUUAUAUUAUAUAUGGAGAAGGCACAUGAGGAUCACCCAUGUUAUAU [lam1] (Eterna round: R97, puzzle: Exclusion 4)
Reply: 72.8

Ask: Request the reported apparent KD of MS2 coat protein associated with GCGGUACAUGAGGAUCACCCAUGUUAGGAUAUUCUACGUCUCUAAUCUGAAACGCAAGGAAGAAGGAGCGUGGG [Eternabot (Original) Solution 21] (Eterna round: R97, puzzle: Exclusion 1)
Reply: 83.7

Ask: Request the reported apparent KD of MS2 coat protein associated with UGUAAGCUAGGAUAUGCUUUGGGAAAGCAUUCCUUCGAUAAACUUGAGGAUCACCCAAGUAGAAGGAGCUUACU [salish99_ex2_r4_006] (Eterna round: R97, puzzle: Exclusion 2)
Reply: 17.5

====

# System: K4 kissing-loop RNA reporter;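 note: bound reporter read as fluorescence of individual clusters on recovered sequencing chips by microscopy, with normalized cluster intensities fitted with a binding model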
# assay name: apparent KD of K4 kissing-loop reporter; higher = weaker reporter binding
# condition summary: Eterna round: R107; input ligand: tryptophan 2.4 mM
Collected apparent KD of K4 kissing-loop reporter values appear next to each entry.
Record the value in nM, omitting the unit from your answer.

CAGAACUUGUAUACAGGGUAUGUAAGAGAUACCAGUCAAAUUAAAGACCCUUGGCAGCUCAGGCGAGUGAUGUUCGCAGGCUAAC [Exclusion Theophylline A GF 18] ... 99
CCGAUGGGUACAGGAUAUGCCAGUGAUGUUGGUUUAGAUGGACCCAGAAGGAGACACCAGACGGAGGCAGAAGGGUAGCAAGGGA [Raarriis] ... 105
AUGUCUAAUACGGCCGCCACUCGAGCAGUGAUGUUGCUCAGUAAUGGUCAUCGUCGUACAUGCCCGAGGACCGGGUAUUGAUUUG [Remain] ... 175
AGACUACUGAUAGGAUAUAACAUCCUAGUCGUAUACCGAAAGGUAUACGAUUUCCUUCUAGUGAUGUUAGAAGGGUCGGUAGUCA [Omei KL FMN B Exc B v11] ... 89.1
CUUAAGACAUGAGUGAUGUUCAUGUCCGAAGGAGCGUGCGAAAGCACAGGUAGGUCGCGGACGUGAGUGAUGUUCAUGUAAGCGA [KL-XArg-A11 #analogue] ... 140
GAUGAACUAUUCGAUACCAGACUACAUGAGUGAUGUUCAUGUGUGUCAAUGUCUAUGUCAGUCCCUUGGCAGCGAAUAGUUUAUC [KL-XTheo-B27] ... 125
AUUAUAUAGGCGGCCGCCACUAGUGAUGUUAGUGACUAUAUGAAAACAUAUAGAAUAAAAUAAUAUAGGACCGGGCCAUAAUAUU [AstrosExTryB#4] ... 471
GUGGCGACGCAAGGAUAUGGGUGCUAGUGAUGUUAGCCUUUGCUCCAUGUCACGUGGUCUGCACACCCAGAAGGUGCGGGAAGAU [theeternabot_exclusion_KL_FMN_B_9] ... 354
AGUGCACUGUCAGGAUAUAUACAGUGAUGUUGUGUAUGUCAGCAAGUCAAAGACUUGCUAUUCUGUGUAGAAGGGACUGUGUACA [Omei KL FMN B Exc A v1] ... 221
UGAUAGGACAGAAGGAGCGGGAGUGAUGUUCCCAAUAAAAGGUCUAGCAAAGCUAGACCCUCCCAGGUAGGUCGCUGUCCUAUCU [ArgBX 2 #Palindromic #SwitchBubble #StaticStem] ... 219

Ask: Request the reported apparent KD of K4 kissing-loop reporter associated with AGUCCACUCUAAAGAGUGGACCUAAGGGAUACCAGUGAUGUUGGUCACCCUUGGCAGCCCUCUGUCAUCGAUAAAGAUGGCAGAA
Reply: 108

Ask: Request the reported apparent KD of K4 kissing-loop reporter associated with CGUUCUUCUGUCGAUACCAGCUUCAGUUGGCGGCCAGUGAUGUUGGUAUCGCCGAUGCCAAGCCCUUGGCAGCGACAUGAGACCC [Onrire]
Reply: 168

====

# System: MS2 coat protein
# assay name: apparent KD of MS2 coat protein; designed switch direction (-1 OFF switch, 1 ON switch): -1; higher = weaker reporter binding
# condition summary: input ligand: FMN 200 uM
Collected apparent KD of MS2 coat protein values appear next to each entry.
The reply should consist of the numeric value with the unit placed after it.

// known answers, use as guide
GCAAGCUUAAUCUGUAUGAACAUGAGGAUCACCCAUGUAUAAGGUAAUUCUGUUGGGUUUUUUAUUGCUCGUCUUAU [JR_STOV1_Sub026] (Eterna round: R97, puzzle: Sensor, turn-off variant 1) ... 71.8 nM
UACCUGAGGCUUUGCUUUAGGCUUACAUGAGGAUCACCCAUGUAGGAUAUGGUAGGCUUUGCUUACCAGAAGGACAUGGUAAUU [JL ENG3 1.07] (Eterna round: R96, puzzle: Exclusion NG 3) ... 90.9 nM
ACUCUUCCUGUUAGGAUAUGCAUCGGGCUUCCGCAGCAGAAGGAACAUGAGGAUCACCCAUGUCAAAUAAAAUC (Eterna round: R97, puzzle: Brourd's mod of Exclusion 4) ... 33.1 nM
GGUUGGCGAGGAUAUACAUGAGGAUCACCCAUGUGGUCCUGUAAAAAAAAAAACCUUUGUAGAAGGCGCGGGUC [salish99_ex3_r4_034] (Eterna round: R97, puzzle: Exclusion 3) ... 211 nM

# evaluate next
Ask: Request the reported apparent KD of MS2 coat protein associated with CAGUACUGAGGAUAUACAUGAGGAUCACCCAUGUGUUCCAGCUAGGAUACUAGCAAAUGUAGAAGGCAGUACUG [Mat - Exclusion 3 - Eli Mod - D8] (Eterna round: R97, puzzle: Exclusion 3)
Reply: 62.9 nM

====

# System: MS2 coat protein
# assay name: apparent KD of MS2 coat protein; designed switch direction (-1 OFF switch, 1 ON switch): 1; higher = weaker reporter binding
# condition summary: input ligand: none
Lab note: compare apparent KD of MS2 coat protein against 70 nM. Equal or greater, write True. Smaller, write False.

Example entries and their recorded answers appear below.
GUCAGCGAUUGAGGAUAUCACGUCGUUUAGACGUGAGAAGGCGAUCAUAACAUGAGGAUCACCCAUGUAUUACAUGAAGCUGAC [SSNG1/5-A3] (Eterna round: R96, puzzle: Same State NG 1) ... False
AAACGACACACAGGAUAUCCGCCAUGCAGGCUCGGAGAAGGGUGUGAAACAUGAGGAUCACCCAUGUAGUCAAAAUAAUAAAGA [Arardixequ] (Eterna round: R96, puzzle: Same State NG 1) ... False
UGGCUCAGACGAGGAUAUAUGUGAUCACAUGAGGAUCACCCAUGUCUCGAGCUUCGGCUCGAGACAUAGAAGGCGUCUGAGCCA [SSNG2/3-A2] (Eterna round: R96, puzzle: Same State NG 2) ... False

Ask: Record GCUAGGAUAUGCAGAGGAUCACCCUGUAGAAGGAGCAUUAGCUAGGAUAUGCAGAGGAUCACCCUGUAGAAGGAGCACUACUCU [pwkr ssNG3 DX 2xF5 +2xFMN.1] (Eterna round: R96, puzzle: Same State NG 3) ; criterion: apparent KD of MS2 coat protein no lower than 70 nM. Met?
Reply: True

Ask: Record UAAAAUAACACAGGAUAUGCAGACAACUCGUCGGCAGAAGGGUGAGACAUGAGGAUCACCCAUGUAAAAUAAGGGCGCCGCCCG [Diatera] (Eterna round: R96, puzzle: Same State NG 1) ; criterion: apparent KD of MS2 coat protein no lower than 70 nM. Met?
Reply: True

Ask: Record UGCCUGAGUCGAGGAUAUUAUGGAUCCUUUAAUACAUGAGGAUCACCCAUGUAAUUAAUUAUACAUGAGAAGGCGACUCAGGCA [SSNG2/11-A2] (Eterna round: R96, puzzle: Same State NG 2) ; criterion: apparent KD of MS2 coat protein no lower than 70 nM. Met?
Reply: True

Ask: Record AGCUAUUACGAAGGAUAUUCUGACAUGAGGAUCACCCAUGUCUUCAUGAUUUAUUGUGAUCACGUGGAGAAGGUUGUACUAACA [SameState NG2 #27] (Eterna round: R96, puzzle: Same State NG 2) ; criterion: apparent KD of MS2 coat protein no lower than 70 nM. Met?
Reply: True

Ask: Record GUCCAAAACACAGGAUAUCCCAGUCAUGAUCUGGGAGAAGGGUGGCCACAUGAGGAUCACCCAUGUGAAGUGCGAGAGGCACGA [Inerraat] (Eterna round: R96, puzzle: Same State NG 1) ; criterion: apparent KD of MS2 coat protein no lower than 70 nM. Met?
Reply: True

Ask: Record GUAGCAUACCGAGGAUAUUCAUACAUGAGGAUCACCCAUGUUUAGGCCAGCAUUAGCUGGCCUUGGGAGAAGGCGGAAUGCUAC [Xeonanis - 20 Mod54] (Eterna round: R96, puzzle: Same State NG 2) ; criterion: apparent KD of MS2 coat protein no lower than 70 nM. Met?
Reply: False

Ask: Record ACAUGAGACAUAGGAUAUGUUGUACCUACAUGUGACAUGAGGAUCACCCAUGUGGUAAGUAUGAGACAGAAGGAUGAGAUAUGU [Equivalence 30 - Jieux - Same State NG 2] (Eterna round: R96, puzzle: Same State NG 2) ; criterion: apparent KD of MS2 coat protein no lower than 70 nM. Met?
Reply: True

Ask: Record UAUGACUUACAAGGAUAUUAAUGACAUGAGGAUCACCCAUGUGGCUGUGUAUGUUAGAUAAGCAUUAAGAAGGUGUGCGAGUCU [JR_SSNG2_Sub097] (Eterna round: R96, puzzle: Same State NG 2) ; criterion: apparent KD of MS2 coat protein no lower than 70 nM. Met?
Reply: False

Ask: Record GUGGUCAGACAUGAGGAUCACCCAUGUGGAAUAAAUAACAGACAGGAUAUUUAAUAUAGGAUAUAGAAGAAGGGUCGAUUGGUG (Eterna round: R96, puzzle: Same State NG 3) ; criterion: apparent KD of MS2 coat protein no lower than 70 nM. Met?
Reply: True

Ask: Record GGUGCGAAAUAAGCCUACAUGAGGAUCACCCAUGUAUGUAGGCAGGAUAUCGUUUGCAAAGCAAACGAGAAGGGCUGACGCACC [Mat - Same State NG 3 - JL Mod - D50] (Eterna round: R96, puzzle: Same State NG 3) ; criterion: apparent KD of MS2 coat protein no lower than 70 nM. Met?
Reply: True
